Measured values drawn from patent US20250206836A1 for this set.

# TEST_SYSTEM: T1, nonhuman primate CD36 (on HEK 293 cells) (cynomolgus monkey / rhesus macaque, UniProt P16671 2-472 (human entry))
# T1 construct: also called non-human primate CD36 (cynomolgus)
# T1 sequence (P16671 other isoform, or with tags, fused parts or gaps limits assumed): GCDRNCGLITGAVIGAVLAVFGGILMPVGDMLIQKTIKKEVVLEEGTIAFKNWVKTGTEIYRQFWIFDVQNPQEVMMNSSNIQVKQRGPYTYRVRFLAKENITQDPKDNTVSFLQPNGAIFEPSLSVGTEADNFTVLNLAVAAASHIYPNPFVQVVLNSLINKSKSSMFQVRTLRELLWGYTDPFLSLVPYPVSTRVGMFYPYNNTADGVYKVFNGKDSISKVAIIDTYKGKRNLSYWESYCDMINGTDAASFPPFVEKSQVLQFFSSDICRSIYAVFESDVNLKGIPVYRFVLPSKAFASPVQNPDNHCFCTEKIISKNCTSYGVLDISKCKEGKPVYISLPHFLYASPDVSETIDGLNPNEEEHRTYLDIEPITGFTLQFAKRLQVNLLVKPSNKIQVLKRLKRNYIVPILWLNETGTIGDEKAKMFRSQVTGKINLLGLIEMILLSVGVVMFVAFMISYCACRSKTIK
# METHOD_DESCRIPTION: FACS, HEK 293 cells transiently overexpressing CD36;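 also: antibody binding to transfected cells detected by flow cytometry with a fluorescent anti-human secondary antibody, EC50 from a four-parameter sigmoidal fit of mean fluorescence intensity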
EC50 values for the binders below.
Answer with a number only, understood to be in pM.

38G04 (antibody, human IgG1, V domains shown, Chimeric: chicken variable regions on human IgG1 LALA (L234A/L235A); also called 038G04) VH: AVTLDESGGGLQTPGRALSLVCKASGFTFSSYNMFWVRQAPGKGLEWVAGIDDDGSFTLYGAAVKGRATISRDNGQSTVRLQLNNLRAEDTGTYYCARDSGAVSIDAWGHGTEVIVSS VL: ALTQPSSVSANPGETVKITCSGGDSDYGWYQQKSPGSAPVTVIYQNDKRPSDIPSRFSGSASGSTATFTITGVQAEDEAVYYCGGWDGSYDGAVFGAGTTLTVL    330

# evaluate next
In plain terms, 24G04 (antibody, human IgG1, V domains shown, Chimeric: mouse variable regions on human IgG1 LALA (L234A/L235A)) VH: QVQLQQSGAELVKPGASVKLSCKASGYTFTSYWMHWVKQRPGQGLEWIGEIDPSDSHANYNQKFKGKATLTVDKSSSTAYMQLSSLTSEDSAVYYCAPIYYGLDNWGQGTTLTVSS VL: DIVMTQSQKFLSTSVGDRVSVTCKASQNVGTNVAWYQQKPGQSPKVLIYSASYRYSGVPDRFTGSGSGTDFTLTVSNVQSEDLAEYFCQQYNNYPLTFGAGTKLELK has a documented EC50 of 810
